Data provenance is ChEMBL document CHEMBL1146219.

tested on: Blood; assay: Biodistribution in blood of B16F0 tumor bearing C57BL/6J mouse at 0.37-0.74 MBq, iv after 1 hr; format: ADME, organism-based; conditions: in vivo
Parameter: Drug uptake (% ID/g)

smiles_record=CCN(CC)CCNC(=O)c1cc([123I])c(NS(C)(=O)=O)cc1OC test_system=Blood reported_value=0.77
smiles_record=COc1cc(NC(C)=O)c([123I])cc1C(=O)NCCCCN(C)C(C)C test_system=Blood reported_value=1.3
smiles_record=O=C(NC1CCN(CCO)CC1)c1ccc([123I])cc1 test_system=Blood reported_value=1

---

system: Brain; assay: Biodistribution in brain of B16F0 tumor bearing C57BL/6J mouse at 0.37-0.74 MBq, iv after 24 hrs; format: ADME, organism-based; settings: in vivo
Parameter: Drug uptake (% ID/g)

P: O=C(NC1CCN(CCF)CC1)c1ccc(I)cc1
Q: CCN(CC)CCNC(=O)c1cc([123I])c(NC(C)=O)cc1OC
Exercise: When the recorded Drug uptake values are compared, which is smaller: that of P or that of Q ? Bench note: the answer is the label of the chosen record.
Key: Q
